target: T1, Fc-tagged human TSLP antigen (huTSLP-Fc) (human, biotin-labeled in the blocking assays); experiment: competition ELISA: blocks TSLP binding to TSLP receptor
T1 construct: whole entry named; also called recombinant human TSLP-Fc
OBSERVABLE: pIC50
API: returns pIC50 as number; meaning -log10 of concentration in mol/L.

Reported pIC50 of hu199-02 (antibody, human IgG1, kappa, V domains shown, IgG1-YTE, kappa) VH: EVQLVQSGAEVKKPGASVKVSCKASGYTFTTYWMHWVRQAPGQGLEWMGMIDPSDSETTLIQKFKDRVTMTVDKSTSTAYMELSSLRSEDTAVYYCARTLDGYYDYWGQGTTVTVSS VL: DIQMTQSPSSLSASVGDRVTITCRASENIYSYLAWYQQKPGKAPKLLVYFAKTLAEGVPSRFSGSGSGTDFTLTISSLQPEDFATYYCQHHYGTPWTFGGGTKVEIKR : 9.66

Reported pIC50 of hu199-09 (antibody, human IgG1, kappa, V domains shown, IgG1-YTE, kappa) VH: EVQLVQSGAEVKKPGASVKVSCKASGYTFTTYWMHWVRQAPGQGLEWMGMIDPSDSETTLIQKFKDRVTLTVDKSTSTAYMELSSLRSEDTAVYYCARTLDGYYDYWGQGTTVTVSS VL: DIQMTQSPSSLSASVGDRVTITCRASENIYSYLAWYQQKPGKSPQLLVYFAKTLAEGVPSRFSGSGSGTQFTLTISSLQPEDFATYYCQHHYGTPWTFGGGTKVEIKR : 9.56

Reported pIC50 of hu199-10 (antibody, human IgG1, kappa, V domains shown, IgG1-YTE, kappa) VH: EVQLVQSGAEVKKPGASVKVSCKASGYTFTTYWMHWVRQAPGQGLEWMGMIDPSDSETTLIQKFKDRVTLTVDKSTSTAYMELSSLRSEDTAVYYCARTLDGYYDYWGQGTTVTVSS VL: DIQMTQSPSSLSASVGDRVTITCRASENIYSYLAWYQQKPGKAPKLLIYFAKTLAEGVPSRFSGSVSGTDFTLTISSLQPEDFATYYCQHHYGTPWTFGGGTKVEIKR : 9.41

Reported pIC50 of hu199-32 (antibody, human IgG1, kappa, V domains shown, IgG1-YTE, kappa) VH: EVQLVQSGAEVKKPGASVKVSCKASGYTFTTYWMHWVKQAPGQGLEWMGMIDPSDSETTLIQKFKDKVTLTVDKSTSTAYMELSSLRSEDTAVYYCARTLDGYYDYWGQGTTVTVSS VL: DIQMTQSPSSLSASVGDRVTITCRASENIYSYLAWYQQKPGKAPKLLVYFAKTLAEGVPSRFSGSGSGTDFTLTISSLQPEDFATYYCQHHYGTPWTFGGGTKVEIKR : 9.54

Reported pIC50 of hu199-20 (antibody, human IgG1, kappa, V domains shown, IgG1-YTE, kappa) VH: EVQLVQSGAEVKKPGASVKVSCKASGYTFTTYWMHWVKQAPGQGLEWIGMIDPSDSETTLIQKFKDKATLTVDKSTSTAYMELSSLRSEDTAVYYCARTLDGYYDYWGQGTTVTVSS VL: DIQMTQSPSSLSASVGDRVTITCRASENIYSYLAWYQQKPGKAPKLLVYFAKTLAEGVPSRFSGSGSGTDFTLTISSLQPEDFATYYCQHHYGTPWTFGGGTKVEIKR : 9.40
